Biological target: Factor IXa (Homo sapiens)
Sequence (P00740 227-461 limits assumed): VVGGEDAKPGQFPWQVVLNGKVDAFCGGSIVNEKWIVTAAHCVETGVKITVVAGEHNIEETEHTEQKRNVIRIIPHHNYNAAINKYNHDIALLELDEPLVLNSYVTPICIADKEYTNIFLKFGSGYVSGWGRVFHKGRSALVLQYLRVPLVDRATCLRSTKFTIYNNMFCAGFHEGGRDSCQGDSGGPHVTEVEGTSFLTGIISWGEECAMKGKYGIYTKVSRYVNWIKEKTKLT
Sequence (P00740 47-191 partner limits assumed): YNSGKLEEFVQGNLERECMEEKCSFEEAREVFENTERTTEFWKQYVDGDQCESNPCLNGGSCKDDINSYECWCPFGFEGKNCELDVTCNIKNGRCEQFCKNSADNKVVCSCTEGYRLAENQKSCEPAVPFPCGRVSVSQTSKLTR
Assay: Determination of inhibitory activity against Factor IXa (cleavage of fluorescent peptide substrate)
Assay type: biochemical
Details: cleavage of fluorescent peptide CH3SO2-D-CHG-Gly-Arg-AFC, release of AFC; read-out: FIXa IC50
Listed below: log10 IC50 values for each entry.
MEASUREMENT_KIND: log10 IC50 (log10 of the value in nM)

COMPOUND	TEST_SYSTEM	ASSAY_RESULT
C[C@](O)(C(=O)Nc1ccc2c(N)noc2c1)[C@@]1(C)OCCN(c2ccn(-c3ccnnc3)n2)C1=O [Example 148]	Factor IXa (Homo sapiens)	1.80
C[C@@H]1CN(c2ccn(-c3ccnnc3)n2)C(=O)[C@@H]([C@@H](O)C(=O)Nc2ccc3c(N)noc3c2)O1 [Example 157]	Factor IXa (Homo sapiens)	0.13
C[C@]1([C@@H](O)C(=O)Nc2ccc3c(N)noc3c2)OCCN(c2ccn(-c3ccc(=O)n(C(F)F)c3)n2)C1=O [Example 76]	Factor IXa (Homo sapiens)	1.05
COc1cc(-n2ccc(N3CCO[C@](C)([C@@](C)(O)C(=O)Nc4ccc5c(N)noc5c4)C3=O)n2)cnn1 [Example 149]	Factor IXa (Homo sapiens)	1.97
C[C@]1([C@@H](O)C(=O)Nc2cc(Cl)c3c(N)noc3c2)OCCN(c2ccn(-c3ccncc3)n2)C1=O [Example 128]	Factor IXa (Homo sapiens)	2.35
COc1cc(-n2nc(N3CCO[C@H]([C@@](C)(O)C(=O)Nc4ccc5c(N)noc5c4)C3=O)cc2C)ccn1 [Example 36]	Factor IXa (Homo sapiens)	1.98
C[C@]1([C@@H](O)C(=O)Nc2ccc3c(N)noc3c2)OCCN(c2ccn(-c3cnc(C(F)(F)F)nc3)n2)C1=O [Example 102]	Factor IXa (Homo sapiens)	2.09
Cn1ncc(-n2ccc(N3CCO[C@H]([C@@](C)(O)C(=O)Nc4ccc5c(N)noc5c4)C3=O)n2)cc1=O [Example 44]	Factor IXa (Homo sapiens)	2.91
C[C@](O)(C(=O)Nc1ccc(CN)c(F)c1)[C@H]1OCCN(c2ccn(-c3ccncc3)n2)C1=O [Example 151]	Factor IXa (Homo sapiens)	1.85
C[C@]1([C@@H](O)C(=O)Nc2ccc3c(N)noc3c2)OCCN(c2cccc(-c3cnoc3)n2)C1=O [Example 114]	Factor IXa (Homo sapiens)	1.66
COc1cc(-n2cc(Cl)c(N3CCO[C@H]([C@@](C)(O)C(=O)Nc4ccc5c(N)noc5c4)C3=O)n2)ccn1 [Example 33]	Factor IXa (Homo sapiens)	2.91
Cc1cc(N2CCO[C@](C)([C@@H](O)C(=O)Nc3ccc4c(N)noc4c3)C2=O)nn1-c1ccnc(C(F)(F)F)c1 [Example 96]	Factor IXa (Homo sapiens)	1.69
C[C@H]1CN(c2ccn(-c3ccncc3)n2)C(=O)[C@@H]([C@@H](O)C(=O)Nc2ccc3c(N)noc3c2)O1 [Example 163]	Factor IXa (Homo sapiens)	1.05
C[C@@H]1CN(c2ccn(-c3ccnc(C(F)(F)F)c3)n2)C(=O)[C@@H]([C@@H](O)C(=O)Nc2ccc3c(N)noc3c2)O1 [Example 170]	Factor IXa (Homo sapiens)	0.38
Cc1cc(N2CCO[C@H]([C@@](C)(O)C(=O)Nc3ccc4c(N)noc4c3)C2=O)nn1-c1cnnc(C#N)c1 [Example 3]	Factor IXa (Homo sapiens)	1.84

The reported numbers originate from patent US9708308B2.
